Taken from the supplement of paper PMC13380429.

Tested on: Vero E6
PROTOCOL_NOTES: cell viability relative to DMSO; higher = less toxic
TEST_CONTEXT: 72 h; 10 nM
READOUT_NAME: cell viability

What value of cell viability has been recorded for this entry: CCn1cc(C(=O)O)c(=O)c2ccc(-c3ccncc3)cc21
102%

Next: O=C(Nc1cccc(Cl)c1)Nc1ncc(CCNc2ncnc3ccsc23)s1
103%

Next: COc1ccccc1NC(=O)OCC1CCN(C(=O)OC(C)(C)C)CC1
102%

Next: O=C(O)C(=O)Nc1cccc(-c2nnn[nH]2)c1
99.5%

Next: S=C(NC1CCCCC1)N1CCC(c2cnc[nH]2)CC1 [thioperamide]
103%

Next: NCCCS(=O)(=O)O [tramiprosate]
95.8%

Next: O=C(O)c1cc2ccccc2s1
95.7%

Next: O=C(c1cccc(Cl)c1F)N1CCN(Cc2cccc(Nc3nccs3)n2)CC1
101%

Next: CCOc1ccc(C[C@H]2NC(=O)CCSSC[C@@H](C(=O)N3CCC[C@H]3C(=O)N[C@@H](CCCN)C(=O)NCC(N)=O)NC(=O)[C@H](CC(N)=O)NC(=O)[C@H]([C@@H](C)O)NC(=O)[C@H]([C@@H](C)CC)NC2=O)cc1
96.2%

Next: C[C@H](NC(=O)Cc1cc(F)cc(F)c1)C(=O)N[C@@H]1C(=O)N(C)c2ccccc2-c2ccccc21
98.7%

Next: COc1cc(C=O)c([N+](=O)[O-])cc1OC
100%

Next: CC(C)n1cnc2c(C(=O)N[C@H]3CN4CCC3CC4)cc(Cl)cc21
95.8%

Next: CC(C)C[C@@H](C(=O)N[C@H](C(=O)OC1CCCC1)c1ccccc1)[C@H](O)C(=O)NO
99.1%

Next: CN1CCN(C(=O)O[C@H]2c3nccnc3C(=O)N2c2ccc(Cl)cn2)CC1
101%

Next: O=C(O)c1ccc(S(=O)(=O)N(Cc2ccc(OC(F)(F)F)cc2)c2ncc(C(F)(F)F)cc2Cl)cc1
95.9%

Next: CCOCCn1c(N2CCCN(C)CC2)nc2ccccc21
105%

Next: CN1CCC[C@@H]1CCSc1ccc(O)cc1 [SIB-1553A]
95.7%

Next: Cn1c(=O)[nH]c2ncn(C)c2c1=O
95.8%

Next: OC[C@H]1O[C@@H](c2ccc(F)c(Cc3cc4ccccc4s3)c2)[C@H](O)[C@@H](O)[C@@H]1O
104%

Next: COc1ccc([C@@H]2CC(=O)c3c(O)cc(O[C@@H]4O[C@H](CO[C@@H]5O[C@@H](C)[C@H](O)[C@@H](O)[C@H]5O)[C@@H](O)[C@H](O)[C@H]4O)cc3O2)cc1O
102%

Next: Oc1ccc(-c2c(-c3ccccc3)nn3c(C(F)(F)F)cc(C(F)(F)F)nc23)cc1
109%

Next: CCC(=O)N1CCN(c2ccc(-n3c(=O)ccc4cnc5ccc(-c6cnc7ccccc7c6)cc5c43)cc2C(F)(F)F)CC1
94.4%

Next: COc1ccc2c(Oc3ccc(NC(=O)c4c(C)n(CC(C)(C)O)n(-c5ccccc5)c4=O)nc3)ccnc2c1
103%

Next: C=C1C(=O)O[C@@H]2C[C@@]3(C)CCC[C@H](C)C3=C[C@H]12
95.8%

Next: O=C(CC(c1ccccc1)c1ccccc1)N1CCN(C(c2ccccc2)c2ccccc2)CC1
99.1%

Next: O=C1OC(CN2CCOCC2)CN1/N=C/c1ccc([N+](=O)[O-])o1 (centres undefined)
94%

Next: COC1=C2C[C@@H](C)C[C@H](OC)[C@H](O)[C@@H](C)/C=C(\C)[C@H](OC(N)=O)[C@@H](OC)/C=C\C=C(/C)C(=O)NC(=CC1=O)C2=O
102%

Next: O=C(O)[C@H]1CCCN(CCC=C(c2ccccc2)c2ccccc2)C1 (racemic)
100%

Next: OC(CCN1CCCCC1)(c1ccccc1)c1ccccc1
103%

Next: CN1CCN(c2c(F)cc3c(=O)c(C(=O)O)cn4c3c2SCC4)CC1
101%

Next: CC(C)C[C@H](NC(=O)[C@H](Cc1ccccc1)NC(=O)c1cnccn1)B(O)O
66.4%

Next: COc1ccc(C(=O)/C(Cc2cc(OC)c(OC)c(OC)c2)=C(\C(=O)O)c2ccc3c(c2)OCO3)cc1
101%

Next: NC(=O)c1ccc(-c2nc(-c3ccc4c(c3)OCCO4)c(-c3ccccn3)[nH]2)cc1
93.4%

Next: CCN1CCN(C(=O)N[C@@H](C(=O)N[C@@H]2C(=O)N3[C@@H]2SC(C)(C)[C@@H]3C(=O)O)c2ccccc2)C(=O)C1=O
99.1%
